B1: HDV Ribozyme (parent)
chain: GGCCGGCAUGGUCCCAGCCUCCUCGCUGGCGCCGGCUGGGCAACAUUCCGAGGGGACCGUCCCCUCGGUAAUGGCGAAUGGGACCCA

# Variants of: B1
# PROTOCOL: self-cleavage, relative activity (ratio to wild type); higher = more cleavage; co-transcriptional

# VARIANT_ID, self-cleavage
records = [
    ("G39A A51U", 0.521),
    ("C57G U69C", 1.06),
    ("G5C C33U", 0.386),
    ("A8G G40C", 0.369),
    ("C62G U72A", 0.467),
    ("C58U G81A", 0.584),
    ("U23C G67U", 0.743),
    ("G11U U65G", 0.542),
    ("G17C A42U", 0.158),
    ("U20G G74A", 0.0923),
    ("A8G C15U", 0.7),
    ("U47C A51U", 0.831),
    ("G31U G55U", 0.324),
    ("C41U G50C", 0.67),
    ("G1C C14G", 0.0615),
    ("G31U C85A", 0.288),
    ("C22G U47C", 0.18),
    ("A8G C58A", 1.07),
    ("C18A C57A", 0.219),
    ("A56G C58U", 0.862),
    ("G54C A70C", 0.755),
    ("C24U U46A", 0.53),
]
